# assayed system: JAK3 (Homo sapiens, UniProt P52333)
# Sequence (P52333 1-1124): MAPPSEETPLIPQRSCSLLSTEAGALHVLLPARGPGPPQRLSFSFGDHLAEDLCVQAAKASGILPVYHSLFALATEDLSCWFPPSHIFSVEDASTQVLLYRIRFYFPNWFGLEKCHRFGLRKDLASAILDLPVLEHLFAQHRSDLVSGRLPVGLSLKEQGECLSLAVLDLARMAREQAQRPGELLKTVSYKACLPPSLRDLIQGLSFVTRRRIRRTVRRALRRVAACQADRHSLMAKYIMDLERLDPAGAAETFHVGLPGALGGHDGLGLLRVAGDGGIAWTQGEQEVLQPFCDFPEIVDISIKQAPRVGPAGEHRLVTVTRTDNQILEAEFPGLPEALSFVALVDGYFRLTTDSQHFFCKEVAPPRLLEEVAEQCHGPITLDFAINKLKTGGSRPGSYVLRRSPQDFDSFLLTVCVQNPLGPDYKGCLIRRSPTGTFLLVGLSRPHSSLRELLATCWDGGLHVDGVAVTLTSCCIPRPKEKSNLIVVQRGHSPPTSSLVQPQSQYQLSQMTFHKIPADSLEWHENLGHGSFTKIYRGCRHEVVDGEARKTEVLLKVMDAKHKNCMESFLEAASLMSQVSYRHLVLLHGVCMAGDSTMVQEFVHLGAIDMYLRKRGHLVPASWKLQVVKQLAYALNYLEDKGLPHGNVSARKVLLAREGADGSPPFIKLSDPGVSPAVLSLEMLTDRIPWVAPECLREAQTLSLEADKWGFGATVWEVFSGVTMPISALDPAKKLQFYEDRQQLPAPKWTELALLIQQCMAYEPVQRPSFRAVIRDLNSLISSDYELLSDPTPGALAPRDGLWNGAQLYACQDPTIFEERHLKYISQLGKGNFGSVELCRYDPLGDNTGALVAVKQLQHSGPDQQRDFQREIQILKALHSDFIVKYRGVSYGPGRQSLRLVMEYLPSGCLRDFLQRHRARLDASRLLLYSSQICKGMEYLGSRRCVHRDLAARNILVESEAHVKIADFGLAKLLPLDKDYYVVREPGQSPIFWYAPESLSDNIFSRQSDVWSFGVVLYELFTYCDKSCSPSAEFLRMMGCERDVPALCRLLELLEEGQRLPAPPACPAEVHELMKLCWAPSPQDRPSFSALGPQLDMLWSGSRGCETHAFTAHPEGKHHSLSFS
pIC50: −log10 of the molar value.
quantity: pIC50

Study these solved cases before continuing.
CCNC(=O)c1ccc(Nc2nccc(-c3ccc(NC(=O)[C@@H]4CC4(F)F)cc3)n2)cc1 : 6.93
CCNC(=O)c1ccc(Nc2nccc(-c3ccc(NC(=O)[C@@H]4CC4(F)F)nc3)n2)cc1C : 6.98

1: CC(CO)c1ccc(Nc2nccc(-c3ccc(NC(=O)[C@@H]4CC4(F)F)nc3)n2)cn1 (stereo partly shown)
2: CNC(=O)c1ncc(Nc2nccc(-c3ccc(NC(=O)[C@@H]4CC4(F)F)cc3)n2)cc1C
query: # min-compare on pIC50 between 1 and 2 Selection: enter the item's label.
result: 1
